// reported Ki per item
- test_system: Mu-type opioid receptor (Homo sapiens, UniProt P35372)
- Sequence (P35372 whole entry): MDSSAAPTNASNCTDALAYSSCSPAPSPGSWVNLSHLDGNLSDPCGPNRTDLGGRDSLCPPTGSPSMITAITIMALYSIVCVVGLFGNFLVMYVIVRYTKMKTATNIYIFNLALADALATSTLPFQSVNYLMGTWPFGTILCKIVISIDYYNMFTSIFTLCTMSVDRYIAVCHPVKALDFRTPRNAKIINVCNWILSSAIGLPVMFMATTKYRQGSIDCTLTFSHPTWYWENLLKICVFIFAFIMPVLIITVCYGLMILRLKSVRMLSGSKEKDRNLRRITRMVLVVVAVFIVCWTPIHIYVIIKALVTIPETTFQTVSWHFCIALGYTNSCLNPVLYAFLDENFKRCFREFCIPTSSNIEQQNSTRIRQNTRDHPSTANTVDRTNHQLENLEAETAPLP

input: Check Mu-type opioid receptor (Homo sapiens, UniProt P35372) data and give Ki for CCOC(=O)CCC(=O)O[C@H]1C[C@@H](C(=O)OC)[C@]2(C)CC[C@H]3C(=O)O[C@H](c4ccoc4)C[C@]3(C)[C@H]2C1=O .
output: > 10 µM

input: Check Mu-type opioid receptor (Homo sapiens, UniProt P35372) data and give Ki for COC(=O)CCCC(=O)O[C@H]1C[C@@H](C(=O)OC)[C@]2(C)CC[C@H]3C(=O)O[C@H](c4ccoc4)C[C@]3(C)[C@H]2C1=O .
output: 5.01 µM

input: Check Mu-type opioid receptor (Homo sapiens, UniProt P35372) data and give Ki for COC(=O)CC(=O)O[C@H]1C[C@@H](C(=O)OC)[C@]2(C)CC[C@H]3C(=O)O[C@H](c4ccoc4)C[C@]3(C)[C@H]2C1=O .
output: > 10 µM
